Reported TGI by item:
System: NCI-H226 lung
measurement.description: NCI tumour cell line growth inhibition, 48 h

// TGI value for CC(N)C(C)c1ccccc1 (stereo not given) : > 100 µM

Noted for CC1(C)N([O-])[N+](=O)C1(C)O (stereo not given) : its TGI reads > 100 µM

Entry under test: C/C(CCN(C)C)=N\OC(=O)c1ccccc1 . Its TGI was > 100 µM

What the record says about COc1nc(NC2OC(CO)C(O)C(O)C2O)c(N)c(=O)[nH]1 (stereo not given) : TGI is > 31.6 µM

// field: TGI; key: CC1=C(C(=O)Nc2ccc(C)cc2)C(c2cccc([N+](=O)[O-])c2)C(C(=O)Nc2ccc(C)cc2)=C(C)N1 ; value = > 100 µM
